# target-entity: RUNX1 (UniProt Q01196)
# Sequence (Q01196 whole entry): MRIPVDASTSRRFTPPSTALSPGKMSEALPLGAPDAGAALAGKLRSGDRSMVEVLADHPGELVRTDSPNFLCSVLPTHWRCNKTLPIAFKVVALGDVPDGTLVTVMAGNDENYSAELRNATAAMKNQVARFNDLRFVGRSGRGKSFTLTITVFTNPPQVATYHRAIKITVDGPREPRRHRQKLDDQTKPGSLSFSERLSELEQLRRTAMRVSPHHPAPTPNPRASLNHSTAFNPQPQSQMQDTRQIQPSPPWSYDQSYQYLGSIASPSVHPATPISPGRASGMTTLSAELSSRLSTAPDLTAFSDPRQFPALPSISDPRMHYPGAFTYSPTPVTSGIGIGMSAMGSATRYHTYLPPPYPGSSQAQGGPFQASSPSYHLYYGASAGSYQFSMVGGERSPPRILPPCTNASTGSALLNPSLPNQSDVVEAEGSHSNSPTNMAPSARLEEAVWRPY
# test-name: RUNX1 binding intensity (PBM fluorescence) in presence of ETS1, normalised to RUNX1-only experiment (arbitrary fluorescence units); higher = stronger binding
# particulars: RUNX1 concentration 2 nM; ETS1 concentration 25 nM
# cutoff 2000 applies to RUNX1 binding intensity; >= gives MET, < gives NOT MET

GCCGCGCGGAAGCCTCCGCCCTGTGGTTTTGGAGCC: NOT MET
ACACAGGAAGCAAAAGTTAAGCTATAAAACCCGCAA: NOT MET
GTTCTCCACATCCTGTTCCGTAGCTGTGGTGCACCG: MET
CGGTTCCGGCGCCTGAAGTTTTAGCTGCGGTGGCGG: NOT MET
ATAGACTCAGGAAGTGATTGTGGTAAGATTCTATAT: NOT MET
AACCTGCAGACTTCCTGCCATGTGACCACAGGGTCT: MET
CTGACAGTTACTTCCTGTCTTTGTGGGCGATTGTGA: MET
CCTGCCTTCCGTCTTCCAGGCAGAACCACAGAGAGG: NOT MET
ACAGGAAATGACATCAGAATCTCCAAACCACAACCA: MET
CCGGGCGCCACTTCCGGTCCCCGTGGTCACGTGACC: MET

Next sequence, please.
RUNX1 binding intensity >= 2000 for "TCCAGCCCCACCGGAAGTGGATGTGGTTAATCTAGT" ? MET

====

# target-entity: RUNX1 (UniProt Q01196)
# test-name: RUNX1 binding intensity (PBM fluorescence), RUNX1 alone (arbitrary fluorescence units); higher = stronger binding
# particulars: RUNX1 concentration 2 nM; ETS1 concentration 0 nM
metric-name: RUNX1 binding intensity
Please give the numeric answer without any surrounding text.

CACCGACCGGAAGGGCCCCAAGGATCCCCGCAGCAG: 831

I'd like to know its RUNX1 binding intensity. The sequence in question is "AGTGGCTACCACTTCCTTCTCTTACCACAGTTCCTT" 1550

I'd like to know its RUNX1 binding intensity. The sequence in question is "CGTGTGGGAGGCCGGAAGTTGCGGCTTCATTACTCG" 845

I'd like to know its RUNX1 binding intensity. The sequence in question is "CGGGCCGGATCGCCTTCGCCGCCGCCCGCCCGCAAA" 979

I'd like to know its RUNX1 binding intensity. The sequence in question is "ACCTTGCCTAGAGGAAGTGGTTTTTCGAATCTGAGT" 739

====

# target-entity: ETS1 (UniProt P14921)
# Sequence: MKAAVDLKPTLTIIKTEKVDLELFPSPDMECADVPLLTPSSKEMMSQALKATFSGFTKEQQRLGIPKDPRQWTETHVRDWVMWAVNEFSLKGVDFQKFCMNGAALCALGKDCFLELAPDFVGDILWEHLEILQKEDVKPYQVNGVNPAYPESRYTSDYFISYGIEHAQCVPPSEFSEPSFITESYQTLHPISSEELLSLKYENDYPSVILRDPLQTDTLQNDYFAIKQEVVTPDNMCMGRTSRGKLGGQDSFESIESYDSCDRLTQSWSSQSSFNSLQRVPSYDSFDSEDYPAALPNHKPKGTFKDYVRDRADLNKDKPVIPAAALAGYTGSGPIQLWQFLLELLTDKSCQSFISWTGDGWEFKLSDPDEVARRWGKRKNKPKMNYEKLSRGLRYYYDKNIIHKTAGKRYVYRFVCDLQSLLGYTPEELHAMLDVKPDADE
# test-name: ETS1 binding intensity (PBM fluorescence), ETS1 alone (arbitrary fluorescence units); higher = stronger binding
# particulars: ETS1 concentration 1 nM; RUNX1 concentration 0 nM
# cutoff 800 applies to ETS1 binding intensity; >= gives 1, < gives -1

ATGTCCCCAGGAGGATGTGGTGTGTCCACAGGAGGA: -1
GCTGCAGCAGGCGGGAAGTCTGCGGTTCGCGGGCTC: -1
GAGCTGCTCCGGAAGGGTGGTGTGTGGTCAACCTTG: -1

ETS1 binding intensity >= 800 for "GGAACAGGAAGCGGCAGAAATAGCAGCCACCGCGGC" ? 1

ETS1 binding intensity >= 800 for "TTGTCTGCATCCTGTGCTGTGTGGTAGCTCTGGGTT" ? -1

ETS1 binding intensity >= 800 for "AGGGAGCCCTCCATTTCCTGCCCACATTTGTCACCT" ? 1

ETS1 binding intensity >= 800 for "AGCGCTTCCCCTTCCGCTGCCGCAGCCGCCGCCTCC" ? -1

ETS1 binding intensity >= 800 for "TGGGGTTTCCTGGGGAGAAACTTAGCCCTACCACAC" ? -1

ETS1 binding intensity >= 800 for "GCTTTGCAGTTTCCTCTGTGGAACACCACACACAGT" ? -1

ETS1 binding intensity >= 800 for "CTTAGCGGAAGAGGCGTGACCCAGGCGTACCGCAGG" ? -1

ETS1 binding intensity >= 800 for "TGTGAACTGACAGGATGTGGTACAAGGCTTACAAAG" ? 1

ETS1 binding intensity >= 800 for "GAGAAAAGAGACTGAGGATGTGGTTTGGGGTGTGGG" ? -1
